# Tested on: A.E7 T cell clones
# Assay protocol: Cytokine production and CD25 expression of A.E7s stimulated with anti-CD3 and anti-CD28 in the presence of CGS
# Format: cell-based
# Measurement conditions: T-cell, read-out: ID50, inhibition of IFN-γ production
pIC50: −log10 of the molar value.

{"columns": ["Item smiles", "pIC50"],
 "data": [
  ["CCNC(=O)[C@H]1O[C@@H](n2cnc3c(N)nc(NCCc4ccc(CCC(=O)O)cc4)nc32)[C@H](O)[C@@H]1O", 6.12]
]}

----------
# Test system: A.E7 T cell clones
# Assay protocol: Cytokine production and CD25 expression of A.E7s stimulated with anti-CD3 and anti-CD28 in the presence of CGS
# Assay type: cell-based
# Measurement conditions: T-cell, read-out: ID50, inhibition of IL-2 production

{"columns": ["Item smiles", "IC50 / nM"],
 "data": [
  ["CCNC(=O)[C@H]1O[C@@H](n2cnc3c(N)nc(NCCc4ccc(CCC(=O)O)cc4)nc32)[C@H](O)[C@@H]1O", 4.7]
]}
